- experimental_details: self-splicing fitness, log relative to wild type (ln ratio); higher = more splicing; Tetrahymena group I intron in knt gene, E. coli kanamycin selection, DiMSum; sequences stand for … in CUCUCU…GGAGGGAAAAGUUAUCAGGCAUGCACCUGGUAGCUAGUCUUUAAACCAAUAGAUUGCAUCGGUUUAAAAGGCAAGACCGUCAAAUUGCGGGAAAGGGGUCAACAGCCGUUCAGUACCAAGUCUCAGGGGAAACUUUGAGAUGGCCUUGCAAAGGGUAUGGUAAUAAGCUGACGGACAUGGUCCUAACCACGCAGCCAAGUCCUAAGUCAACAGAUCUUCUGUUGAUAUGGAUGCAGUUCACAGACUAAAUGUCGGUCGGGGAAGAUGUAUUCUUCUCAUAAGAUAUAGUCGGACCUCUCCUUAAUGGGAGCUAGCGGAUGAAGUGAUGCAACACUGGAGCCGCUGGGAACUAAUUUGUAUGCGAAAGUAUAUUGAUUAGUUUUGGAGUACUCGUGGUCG;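 note: selection with 25 µg/mL kanamycin versus none on LB agar overnight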
- experimental_conditions: 30 °C
yes means recorded self-splicing fitness (ln) is -2 or above; no means it is below -2.

## Task Would you say `GUACAGCAAUAUUACGAACA` shows self-splicing fitness (ln) at minimum -2?
## Result yes

## Task Would you say `GCCCAGCAAUAUUACGCUCC` shows self-splicing fitness (ln) at minimum -2?
## Result yes

## Task Would you say `AUGGAGCAAUAUUACGAAGG` shows self-splicing fitness (ln) at minimum -2?
## Result no

## Task Would you say `GCACAGCAAUAUUACGUUCU` shows self-splicing fitness (ln) at minimum -2?
## Result yes

## Task Would you say `UCUAAGCAAUAUUACGGUAU` shows self-splicing fitness (ln) at minimum -2?
## Result no

## Task Would you say `GCGAAGCAAUAUUACGAUGG` shows self-splicing fitness (ln) at minimum -2?
## Result no

## Task Would you say `AUAGAGCAAUAUUACGGGUC` shows self-splicing fitness (ln) at minimum -2?
## Result no

## Task Would you say `AAGCAGCAAUAUUACGCCAC` shows self-splicing fitness (ln) at minimum -2?
## Result no

## Task Would you say `UGAUAGCAAUAUUACGGCCG` shows self-splicing fitness (ln) at minimum -2?
## Result yes

## Task Would you say `UGCAAGCAAUAUUACGAACC` shows self-splicing fitness (ln) at minimum -2?
## Result yes

## Task Would you say `ACGGAGCAAUAUUACGUCGC` shows self-splicing fitness (ln) at minimum -2?
## Result no

## Task Would you say `CAAGAGCAAUAUUACGAGUU` shows self-splicing fitness (ln) at minimum -2?
## Result no

## Task Would you say `AAAUAGCAAUAUUACGACGA` shows self-splicing fitness (ln) at minimum -2?
## Result yes

## Task Would you say `AUGAAGCAAUAUUACGCUCA` shows self-splicing fitness (ln) at minimum -2?
## Result yes

## Task Would you say `CUGGAGCAAUAUUACGGACU` shows self-splicing fitness (ln) at minimum -2?
## Result no

## Task Would you say `AUGGAGCAAUAUUACGGUGC` shows self-splicing fitness (ln) at minimum -2?
## Result no

## Task Would you say `CGACAGCAAUAUUACGGGUA` shows self-splicing fitness (ln) at minimum -2?
## Result no

## Task Would you say `GAUCAGCAAUAUUACGAAUC` shows self-splicing fitness (ln) at minimum -2?
## Result no

## Task Would you say `CGGUAGCAAUAUUACGUCUA` shows self-splicing fitness (ln) at minimum -2?
## Result yes

## Task Would you say `ACAAAGCAAUAUUACGAGGU` shows self-splicing fitness (ln) at minimum -2?
## Result no

## Task Would you say `UAGGAGCAAUAUUACGAUCU` shows self-splicing fitness (ln) at minimum -2?
## Result no

## Task Would you say `GCGUAGCAAUAUUACGCGGG` shows self-splicing fitness (ln) at minimum -2?
## Result no

## Task Would you say `CCCAAGCAAUAUUACGUCAA` shows self-splicing fitness (ln) at minimum -2?
## Result yes

## Task Would you say `UGCGAGCAAUAUUACGCUCG` shows self-splicing fitness (ln) at minimum -2?
## Result no

## Task Would you say `UAGCAGCAAUAUUACGCGGU` shows self-splicing fitness (ln) at minimum -2?
## Result no

## Task Would you say `CUCUAGCAAUAUUACGUUGU` shows self-splicing fitness (ln) at minimum -2?
## Result no

## Task Would you say `GCAGAGCAAUAUUACGGAGC` shows self-splicing fitness (ln) at minimum -2?
## Result no

Provenance of the data: the supplement of paper PMC7877785
